subject.of.test: human CD33 F43V (human, UniProt P20138 18-364)
Sequence (P20138 18-364 F43V limits assumed): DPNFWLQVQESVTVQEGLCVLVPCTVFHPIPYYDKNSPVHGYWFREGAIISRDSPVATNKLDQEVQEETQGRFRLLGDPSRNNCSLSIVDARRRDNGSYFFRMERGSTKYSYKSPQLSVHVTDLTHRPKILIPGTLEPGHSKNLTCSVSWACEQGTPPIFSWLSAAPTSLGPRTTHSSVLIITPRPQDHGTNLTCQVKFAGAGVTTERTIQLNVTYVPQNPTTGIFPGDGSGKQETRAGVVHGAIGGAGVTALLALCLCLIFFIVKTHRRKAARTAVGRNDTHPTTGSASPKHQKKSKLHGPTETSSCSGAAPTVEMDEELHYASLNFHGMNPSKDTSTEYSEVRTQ
protocol.summary: flow cytometry, mutant on cells, IgG
Measured Mean % WT Binding of individual entries
measured.metric: Mean % WT Binding (% WT binding)

{"binder": "Refmab #4 (antibody, human IgG1, V domains shown, Tested in IgG format; human IgG1 Fc silent (PG-LALA)) VH: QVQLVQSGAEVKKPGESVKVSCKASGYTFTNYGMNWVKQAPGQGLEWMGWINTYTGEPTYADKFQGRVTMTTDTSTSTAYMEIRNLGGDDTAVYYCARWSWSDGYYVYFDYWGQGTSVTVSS VL: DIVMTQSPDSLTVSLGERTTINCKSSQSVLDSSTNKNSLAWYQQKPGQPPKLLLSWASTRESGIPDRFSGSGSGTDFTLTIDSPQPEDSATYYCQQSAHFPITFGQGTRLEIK", "value.unit": "% WT binding", "observed.measurement": 81.5}
{"binder": "Refmab #2 (antibody, human IgG1, V domains shown, Tested in IgG format; human IgG1 Fc silent (PG-LALA)) VH: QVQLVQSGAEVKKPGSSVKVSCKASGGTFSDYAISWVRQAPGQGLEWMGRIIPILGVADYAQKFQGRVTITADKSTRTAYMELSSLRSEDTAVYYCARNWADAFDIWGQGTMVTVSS VL: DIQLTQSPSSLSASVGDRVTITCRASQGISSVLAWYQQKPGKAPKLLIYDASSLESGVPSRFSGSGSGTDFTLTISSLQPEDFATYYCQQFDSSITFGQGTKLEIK", "value.unit": "% WT binding", "observed.measurement": 24.5}
{"binder": "Refmab #3 (antibody, human IgG1, V domains shown, Tested in IgG format; human IgG1 Fc silent (PG-LALA)) VH: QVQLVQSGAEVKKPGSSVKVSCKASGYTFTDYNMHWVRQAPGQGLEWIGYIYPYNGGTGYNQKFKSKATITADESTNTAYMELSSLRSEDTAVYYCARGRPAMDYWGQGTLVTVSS VL: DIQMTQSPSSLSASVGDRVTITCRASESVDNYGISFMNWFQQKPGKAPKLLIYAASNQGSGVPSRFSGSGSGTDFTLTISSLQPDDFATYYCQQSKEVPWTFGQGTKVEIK", "value.unit": "% WT binding", "observed.measurement": 101}
